Subject of test: OR2T4 (Homo sapiens, UniProt Q8NH00, D328E/G331D/M330K)
Sequence (Q8NH00 with tags, fused parts or gaps D328E/M330K/G331D): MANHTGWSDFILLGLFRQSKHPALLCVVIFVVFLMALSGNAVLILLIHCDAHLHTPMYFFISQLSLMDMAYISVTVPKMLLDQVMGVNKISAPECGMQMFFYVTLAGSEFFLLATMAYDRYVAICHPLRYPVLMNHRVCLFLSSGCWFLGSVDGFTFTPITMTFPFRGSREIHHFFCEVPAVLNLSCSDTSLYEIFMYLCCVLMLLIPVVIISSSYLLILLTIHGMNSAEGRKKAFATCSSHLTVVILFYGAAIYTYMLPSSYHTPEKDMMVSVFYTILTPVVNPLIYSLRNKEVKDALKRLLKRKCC
Condition parameters: OR2T4 variant, 4 μM 2-methyl-3-tetrahydrofuranethiol
Each record here notes measured % of the activation by the optimized sequence RNKEVKDALKRLLKRKCC.
Test readout: % of the activation by the optimized sequence RNKEVKDALKRLLKRKCC (%)

* SEQ ID NO: 122 (RNKEVKKAIKRLLKRKCR; source 1..18: note = C-terminal domain sequence) | 97.3
* SEQ ID NO: 117 (RNKEVKKAIKRLFKRKCC; source 1..18: note = C-terminal domain sequence) | 96.2
* SEQ ID NO: 115 (RNKEVKKAIKRLLKRKCC; source 1..18: note = C-terminal domain sequence) | 103.1
* SEQ ID NO: 116 (RNKEVKRAIKRLFKRKCC; source 1..18: note = C-terminal domain sequence) | 63.3
* SEQ ID NO: 149 (RNKEVKDALKRLLKRKCRRR; source 1..20: note = C-terminal domain sequence) | 108.0
* SEQ ID NO: 150 (RNKEVKDALKRLLKRKCRKK; source 1..20: note = C-terminal domain sequence) | 94.8
* SEQ ID NO: 118 (RNKEVKRAIRKLLKRKCC; source 1..18: note = C-terminal domain sequence) | 80.6
* SEQ ID NO: 86: optimized C-terminal sequence fused after TM7 of the OR of the assay (RNKEVKDALKRLLKRKCC; source 1..18: note = C-terminal domain sequence) | 100
